Recorded IC50 values for a group of molecules are listed next.
Target: human NaPi-2a (Homo sapiens, UniProt Q06495)
Construct: expressed in transfected cells
Sequence (Q06495 1-639): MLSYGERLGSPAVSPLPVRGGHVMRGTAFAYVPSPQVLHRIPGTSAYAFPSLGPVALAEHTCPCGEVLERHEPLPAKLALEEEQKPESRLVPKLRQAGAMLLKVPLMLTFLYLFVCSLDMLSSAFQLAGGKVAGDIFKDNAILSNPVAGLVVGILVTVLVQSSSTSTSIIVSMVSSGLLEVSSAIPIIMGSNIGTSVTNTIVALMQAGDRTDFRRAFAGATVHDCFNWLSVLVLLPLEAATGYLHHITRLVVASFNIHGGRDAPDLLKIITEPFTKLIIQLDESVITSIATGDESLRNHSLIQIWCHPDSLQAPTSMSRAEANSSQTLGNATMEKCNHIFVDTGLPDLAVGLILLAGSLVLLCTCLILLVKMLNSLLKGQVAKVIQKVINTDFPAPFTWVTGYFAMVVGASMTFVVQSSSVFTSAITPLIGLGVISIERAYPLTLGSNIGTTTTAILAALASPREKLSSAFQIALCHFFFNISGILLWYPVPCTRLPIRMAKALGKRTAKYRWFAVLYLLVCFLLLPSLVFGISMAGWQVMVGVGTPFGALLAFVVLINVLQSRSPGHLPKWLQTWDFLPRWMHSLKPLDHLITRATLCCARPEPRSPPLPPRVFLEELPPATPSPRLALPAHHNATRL
Experiment: Sodium-dependent phosphate uptake of Xenopus oocytes which expressed NaPi-2a (32P)
Format: cell-based
Details: phosphate uptake, Xenopus oocytes expressing human NaPi-2a; five concentration levels

Use these answered entries as a reference point.
molecule	IC50
Cc1sc(NC(=O)c2cccc(CN(CC(C)O)CC(C)O)c2)c(C(=O)N/N=C/c2ccc(F)cc2)c1C (stereo not drawn)	< 3 µM
O=C(Nc1ccc(N2CCCCC2)cc1C(=O)N/N=C/c1ccc(Cl)c(C(F)(F)F)c1)c1cccc(CSCC(O)CO)c1 (stereo not drawn)	< 1 µM

# next molecule below
Give its IC50 value. Item: Cc1ccc(/C=N/NC(=O)c2cc(F)ccc2NC(=O)c2cccc(CN(CC(C)O)CC(C)O)c2)cc1C (stereo not drawn)
< 3 µM
